Reported MIC is given for each of the following compounds.
- System: E coli NCTC 10418
- procedureDetails: antibacterial activity (MIC)
- Type: cell-based
- condition: Escherichia coli, NCTC10418; Table 2; gram negative organism E. coli NCTC 10418
Counter-ions that a name gives are not always drawn.
Kindly provide the numeric value in µg/mL only, without the unit symbol.

// known answers, use as guide
{"columns": ["compound", "MIC / µg/mL"],
 "data": [
  ["CNc1ncc(C(=O)N[C@@H](C(=O)N[C@@H]2C(=O)N3[C@@H]2SC(C)(C)[C@@H]3C(=O)O)c2ccccc2)c(O)n1 [Example 11, disodium salt]", 25],
  ["CCCCCCNc1ncc(C(=O)N[C@@H](C(=O)N[C@@H]2C(=O)N3[C@@H]2SC(C)(C)[C@@H]3C(=O)O)c2ccccc2)c(O)n1 [Example 19, disodium salt]", 1.2],
  ["COc1cc(CNc2ncc(C(=O)N[C@@H](C(=O)N[C@@H]3C(=O)N4[C@@H]3SC(C)(C)[C@@H]4C(=O)O)c3ccccc3)c(O)n2)ccc1O [Example 8, disodium salt]", 10],
  ["CCCCNc1ncc(C(=O)N[C@@H](C(=O)N[C@@H]2C(=O)N3[C@@H]2SC(C)(C)[C@@H]3C(=O)O)c2ccccc2)c(O)n1 [Example 16, disodium salt]", 1.2],
  ["CCCCNc1ncc(C(=O)N[C@@H](C(=O)N[C@@H]2C(=O)N3[C@@H]2SC(C)(C)[C@@H]3C(=O)O)c2ccc(O)cc2)c(O)n1 [Example 17, disodium salt]", 5]
]}

Shift focus to the following entry.
Quick check: MIC of CCCCCNc1ncc(C(=O)N[C@@H](C(=O)N[C@@H]2C(=O)N3[C@@H]2SC(C)(C)[C@@H]3C(=O)O)c2ccccc2)c(O)n1 [Example 18, disodium salt] ? 1.25
